test system: SN12C renal; assay: NCI-60 one-dose screen, 48 h; conditions: 10 µM unless noted
About 83,000 compounds went through this panel and 20% of them were active in at least one assay; those are over-represented in the sample as a whole. The source made the active and inactive calls. The calls were made as follows: active = growth percent below 10; inactive = the rest.
Valid outcomes are listed here; reply with one: class 1 = active, class 0 = inactive

q: Called result for Clc1ccc(Nc2scc3[n+]2CCC3)cc1
a: class 0

q: Record lookup: outcome of this test for CCOC(=O)c1c2c(n3cccc(Cl)c13)C(=O)c1ncccc1C2=O ?
a: class 0

q: Hi team, can someone confirm the assay call for CN1C(=O)N(C)C2C1NN=c1s/c(=C\c3ccc(Cl)cc3Cl)c(=O)n12 (configuration not stated) ?
a: class 0

q: Field: outcome | Entry: O=c1oc2ccc(I)cc2c(=O)n1-c1ccc(F)cc1F
a: class 0

q: Please let me know the test result on file for Cn1cc([C@@H]2Nc3ccc4[nH]ncc4c3[C@H]3[C@H]4CCC(C4)[C@H]32)c(C(F)(F)F)n1 .
a: class 0

q: How did this test come out for COc1cc2cc3c(=O)n4c(cc5cc(OC)ncc54)c(=O)n3c2cn1 ?
a: class 0

q: I'd appreciate the recorded outcome for O=c1cc(NC2CCN(CCCc3ccccc3)CC2)c2cc(Cl)ccc2o1 from this test.
a: class 1

q: Status in this test for COc1ccc(/C=C2\CCC/C(=C\c3ccc(OC)c(OC)c3)C2=O)cc1OC ?
a: class 1

q: I would be grateful if you could indicate the recorded call for CNCCNc1nc2ccccc2c2c(=O)c3cc(OC)ccc3sc12 .
a: class 0

q: Kindly provide the recorded test outcome for the following molecule: CC1=NCC2NC(=O)NC(C)=C12 (configuration not stated)
a: class 0

q: // outcome(item) with item = N#C/C(=C1\SC(=O)CN1c1ccccc1)c1nc2ccccc2s1
a: class 0

q: Called result for O=c1c2cc(F)cc(Cl)c2sc2c(Cl)nc3ccccc3c12
a: class 0

q: What call does the record list for NCCNc1nc2ccc(F)cc2c2c(=O)c3cc(F)ccc3sc12 ?
a: class 0

q: What was the test verdict on CCOC(=O)CSc1c(-c2ccccc2)c2cc(Cl)ccc2[nH]c1=O ?
a: class 0

q: Record lookup: outcome of this test for COC(=O)/C(CCC=C(C)C)=C1\[C@@H](OC(C)=O)C[C@@]2(C)[C@H]1C[C@@H](O)[C@H]1[C@@]3(C)CC[C@H](NCCO)[C@@H](C)[C@@H]3CC[C@@]12C ?
a: class 0

q: Test call for this molecule, please: COc1ccc(Nc2cc(C)nc(NCc3ccccc3)n2)cc1
a: class 0

q: What did the test return for CCOc1ccc(Nc2ccnc3cc(Cl)ccc23)cc1 ?
a: class 1

q: Lab log entry: O=C(/C=C/c1ccc(C(F)(F)F)cc1)c1ccc(Nc2nc(NCCO)nc(N3CCOCC3)n2)cc1 — outcome as called in the assay?
a: class 0

q: Which outcome was assigned to COc1cc(/C=C/C(=O)c2ccc(Cl)cc2)cc(CN2CCCCC2)c1O in this test?
a: class 0

q: Just curious, what result did COc1cccc(/C=C/C(=O)c2c(C)nc3ccccc3c2/C=C/c2ccccc2)c1OC get here?
a: class 0

q: Please share the test call associated with CCC1=C[C@]2(C3CC(=O)N(c4ccccc4)C3=O)CC(C(C)(C)C)C[C@@H]2[C@@H]2C(=O)N(c3ccccc3)C(=O)[C@H]12 (some centres not stated) .
a: class 0

q: Name the outcome recorded for COC(=O)C1=Nc2ccc(F)cc2/C1=C/c1sc(=S)[nH]c1O in the assay.
a: class 0

q: Entry COc1ccccc1N1C(=N)S/C(=C\c2ccc(OCc3ccccc3F)cc2)C1=O : call = ?
a: class 0

q: Lab log entry: CCOC(=O)c1c(C=O)nc2ccccc2c1/C=C/c1ccc(Cl)cc1 — outcome as called in the assay?
a: class 0

q: Please share the test call associated with O=S1(=O)N(Cc2ccccc2)[C@@H](Cc2ccccc2)[C@H](O)[C@H](O)[C@H](Cc2ccccc2)N1Cc1ccccc1 .
a: class 1

q: # outcome recorded in this test, key = O=C(NCCCN1CCC(N2CCCCC2)CC1)C1=Cc2cc(Br)ccc2OC1
a: class 0

q: Just curious, what result did O=C(Cn1cc(COc2ncnc3c2cnn3-c2ccccc2)nn1)Nc1ccccn1 get here?
a: class 0

q: Could you please tell me the result logged for FC(F)(F)c1cccc(Nc2nc(-c3ccccc3)nc3ncccc23)c1 in this assay?
a: class 0

q: Which outcome was entered for the molecule O=C(c1nc2ccccc2[nH]1)C1[C@@H](c2cccc(O)c2)C2CC3CCCCC3N2[C@@]12C(=O)Nc1cc(Cl)ccc12 (some centres not stated) in this test?
a: class 0

q: Any idea what this test logged for C[n+]1c2ccccc2nc2ccc(NCCO)cc21 ?
a: class 0

q: // return assay outcome for CCOc1cc2c(cc1OCC)C(c1cc(C)c(O)c(C)c1)NCC2 (configuration not stated)
a: class 0

q: I would be grateful if you could indicate the recorded call for NS(=O)(=O)c1ccc(CCN=C=S)cc1 .
a: class 0

q: Recorded test call requested for CN1C(=O)N(C)C2Nn3c(s/c(=C4\C(=O)N(CCc5ccccc5)c5ccccc54)c3=O)=NC21 (configuration not stated)
a: class 0

q: Assay outcome for CCOC(=O)C1=C(C)c2ccc(OC)c(OC)c2C1 : what was it?
a: class 0

q: Assay result, entry Clc1ncccc1Nc1ccc2nnc(-c3ccncc3)n2n1 — outcome?
a: class 0

q: Which result was noted for this molecule in the test: CC(C)C[C@H](C(=O)N[C@@H](C)C(N)=O)N1CC=CCN(O)S1(=O)=O
a: class 0

q: Called result for CCOC(=O)C(CC(=O)O)=C(C(=O)OCC)C(=O)OCC
a: class 0

q: Field: outcome | Entry: CC(=Nc1ccccc1)C1=C(O)C(Cc2ccc(F)cc2)NC1=O (configuration not stated)
a: class 0

q: Fill in: this test's call for O=c1oc2ccc(Br)cc2c(=O)n1-c1ccc(Br)cc1F is ___
a: class 1

q: Recorded call for Cc1ccc(S(=O)c2ccc([N+](=O)[O-])c3nonc23)cc1 (configuration not stated) ?
a: class 0

q: Status in this test for O=C(Nc1ccc(C23CC4CC(CC(c5ccccc5)(C4)C2)C3)cc1)c1cccs1 ?
a: class 0

q: State the result this test recorded for COc1ccc(/C(C#N)=C/c2nc3c(N4CCOCC4)nc(Cl)nc3n2C)cc1OC .
a: class 0
